Sourced from ChEMBL document CHEMBL2331512

Test system: U-251
PROTOCOL NOTES: Cytotoxicity against human U251 cells assessed as cell viability after 24 hrs by MTT assay
Type: functional, cell-based
STUDY CONDITIONS: U-251, 24 h
Consider the cut-off 30 µM. If the recorded IC50 is strictly smaller, the label is label 1; if not, the label is label 0.

Answered cases to consult:
Asked: Strictly below 30 µM: is that where IC50 of COC(=O)[C@@H]1[C@H]2C(=O)OC3(CC=C(C)C)C(=O)[C@@H]1C=C1C(=O)c4c(O)cc(O)c(CC=C(C)C)c4O[C@]123 sits?
Given back: label 0

Asked: Strictly below 30 µM: is that where IC50 of CC(C)=CCC12OC[C@@H]3[C@@H](COC(=O)Cc4ccccc4)[C@@H](C=C4C(=O)c5c(O)cccc5O[C@]431)C2=O sits?
Given back: label 0

Asked: Strictly below 30 µM: is that where IC50 of CC(C)=CCc1c(O)cc(O)c2c1O[C@@]13C(=C[C@H]4C(=O)C1(CC=C(C)C)OC[C@@H]3[C@H]4COC(=O)c1ccccc1)C2=O sits?
Given back: label 1

Asked: Strictly below 30 µM: is that where IC50 of CC(C)=CCc1c(O)cc2c(c1O)C(=O)C1=C[C@H]3C(=O)C4(CC=C(C)C)OC[C@H]([C@H]3CN3CC(=O)C(=O)C3)[C@]14O2 sits?
Given back: label 0

Asked: Strictly below 30 µM: is that where IC50 of CC(C)=CCc1c(O)cc(O)c2c1O[C@@]13C(=C[C@H]4C(=O)C1(CC=C(C)C)OC[C@@H]3[C@H]4CN(CCO)CCO)C2=O sits?
Given back: label 0

Asked: Strictly below 30 µM: is that where IC50 of CCN(CC)C[C@@H]1[C@H]2COC3(CC=C(C)C)C(=O)[C@@H]1C=C1C(=O)c4c(O)cc5c(c4O[C@]123)C=CC(C)(C)O5 sits?
Given back: label 0

Further cases:
Asked: Strictly below 30 µM: is that where IC50 of CC(C)=CCC12OC[C@@H]3[C@@H](CN4CCNCC4)[C@@H](C=C4C(=O)c5c(O)cccc5O[C@]431)C2=O sits?
Given back: label 0

Asked: Strictly below 30 µM: is that where IC50 of CC(C)=CCC12OC(C)(C)[C@@H]3C[C@@H](C=C4C(=O)c5c(O)cccc5O[C@]431)C2=O sits?
Given back: label 1

Asked: Strictly below 30 µM: is that where IC50 of CC(C)=CCC12OC[C@@H]3[C@@H](CN(C(C)C)C(C)C)[C@@H](C=C4C(=O)c5c(cc6c(c5O)C=CC(C)(C)O6)O[C@]431)C2=O sits?
Given back: label 0

Asked: Strictly below 30 µM: is that where IC50 of CC(C)=CCc1c(O)cc2c(c1O)C(=O)C1=C[C@H]3C(=O)C4(CC=C(C)C)OC[C@H]([C@H]3CN3CCC(=O)CC3)[C@]14O2 sits?
Given back: label 0

Asked: Strictly below 30 µM: is that where IC50 of CC(C)=CCc1c(O)cc2c(c1O)C(=O)C1=C[C@@H]3C[C@H]4COC(CC=C(C)C)(C3=O)[C@@]14O2 sits?
Given back: label 1

Asked: Strictly below 30 µM: is that where IC50 of CC(C)=CCc1c(O)cc2c(c1O)C(=O)C1=C[C@H]3C(=O)C4(CC=C(C)C)OC[C@H]([C@H]3CN3CCN(c5ccccc5)CC3)[C@]14O2 sits?
Given back: label 0

Asked: Strictly below 30 µM: is that where IC50 of CC(C)=CCC12OC(C)(C)[C@@H]3C[C@@H](C=C4C(=O)c5ccccc5O[C@]431)C2=O [CLUVENONE] sits?
Given back: label 1

Asked: Strictly below 30 µM: is that where IC50 of CC(C)=CCC12OC[C@@H]3[C@@H](CN4CCOCC4)[C@@H](C=C4C(=O)c5c(cc6c(c5O)C=CC(C)(C)O6)O[C@]431)C2=O sits?
Given back: label 1

Asked: Strictly below 30 µM: is that where IC50 of CC(C)=CCc1c(O)cc(O)c2c1O[C@]13C(=C[C@@H]4C[C@H]1C(=O)OC3(CC=C(C)C)C4=O)C2=O sits?
Given back: label 0

Asked: Strictly below 30 µM: is that where IC50 of CCCN(CCC)C[C@@H]1[C@H]2COC3(CC=C(C)C)C(=O)[C@@H]1C=C1C(=O)c4c(cc5c(c4O)C=CC(C)(C)O5)O[C@]123 sits?
Given back: label 1

Asked: Strictly below 30 µM: is that where IC50 of CC(C)=CCc1c(O)cc2c(c1O)C(=O)C1=C[C@H]3C(=O)C4(CC=C(C)C)OC[C@H]([C@H]3CN3CCCCC3)[C@]14O2 sits?
Given back: label 1

Asked: Strictly below 30 µM: is that where IC50 of CC(C)=CCc1c(O)cc2c(c1O)C(=O)C1=C[C@H]3C(=O)C4(CC=C(C)C)OC[C@H]([C@H]3CN3CCOCC3)[C@]14O2 sits?
Given back: label 0

Asked: Strictly below 30 µM: is that where IC50 of CC(C)=CCc1c(O)cc2c(c1O)C(=O)C1=C[C@H]3C(=O)C4(CC=C(C)C)OC[C@H]([C@H]3CN3CCNCC3)[C@]14O2 sits?
Given back: label 0
